Cited source: PubChem BioAssay (NCI)

# Tested on: KM12 colon
# Experimental details: NCI-60 one-dose screen, 48 h (100 = growth as untreated, 0 = no growth, -100 = all killed)
# Protocol conditions: 10 µM unless noted
# Method: Growth inhibition of the KM12 human tumor cell line is measured as a screen for anti-cancer activity. Cells are grown in 96 well plates and exposed to the test compound for 48 hours. Compounds are tested at a single concentration, which is 10^-5 M for most compounds. The reported endpoint is percent growth (GI% or GIPRCNT), where numbers from 0 - 100% represent growth inhibition, and numbers from -100% - 0 represent cell death. For example, a value of 40 represents 60% growth inhibition. […]
This is part of a sample that, as a whole, favours compounds with a hit. Of some 83,000 tested, about 20% had one in any assay. Active and inactive are the calls of the source. The calls were made as follows: active = growth percent below 10; inactive = the rest.
Endpoint label: growth

Q) Give its growth value. Item: C/C(=C(/c1ccc(Cl)cc1)c1ccc(OCCCN(C)C)cc1)c1ccc(Cl)cc1
A) 79.9% (inactive)

Q) Give its growth value. Item: Brc1ccc(-c2cnc3nonc3n2)cc1
A) 78.2% (inactive)

Q) Give its growth value. Item: CC(O)c1ncc(/C=C2\SC(=S)N(Cc3ccccc3)C2=O)s1 (centres undefined)
A) 81% (inactive)

Q) Give its growth value. Item: Cc1ccc2nc(Cl)c(Cn3nnnc3SCc3ccccc3)cc2c1
A) 101% (inactive)

Q) Give its growth value. Item: C=CC(=O)NCCOc1cccc(Nc2cc(NCCCNC(=O)C3CCC3)c(Br)cn2)c1
A) 5.83% (active)

Q) Give its growth value. Item: Cn1c(=O)c2c(c3ccccc31)OC(N)=C(C#N)C21C(=O)c2ccccc2C1=O
A) 95.2% (inactive)

Q) Give its growth value. Item: CC1(C)OC(=O)C(=Cc2cccc(Br)c2)C(=O)O1
A) 111% (inactive)

Q) Give its growth value. Item: CC(C)CCC[C@@H](C)C1CCC2C3CCC4=C/C(=N/OCCN(C)C)CC[C@]4(C)C3CC[C@@]21C (some centres undefined)
A) 87.4% (inactive)

Q) Give its growth value. Item: O=C(/C=C\c1ccco1)/C=C/c1ccco1
A) 106% (inactive)

* * *

# Test system: MDA-MB-231 breast
# Experimental details: NCI-60 one-dose screen, 48 h
# Protocol conditions: 10 µM unless noted
The panel holds about 83,000 compounds, 20% with a hit somewhere; the sample as a whole holds those more often. The source made the active and inactive calls. The calls were made as follows: active = growth percent below 10; inactive = the rest.
Return exactly one item of active, inactive

Q) Tell me the recorded outcome of this test for COc1ccc2c(c1)c(-c1nonc1-c1c[nH]c3ccc(Br)cc13)cn2C .
A) inactive

Q) Tell me the recorded outcome of this test for Cc1cc(C)c(-c2c(O)c(Br)c(-c3c(C)cc(C)c(Br)c3C)c(O)c2Br)c(C)c1Br .
A) active

Q) Tell me the recorded outcome of this test for O=C(O)CCCc1cnc2c3sccc3nc(SCc3c(Cl)cccc3Cl)n12 .
A) inactive

Q) Tell me the recorded outcome of this test for COC(=O)c1ccc2c(c1)c1c(C)c3ccncc3c(C)c1n2C .
A) inactive

Q) Tell me the recorded outcome of this test for CCn1c2ccc(O)cc2c2c(C)c3c[n+](C(C)C)ccc3c(C)c21 .
A) inactive

Q) Tell me the recorded outcome of this test for CC1=NN(c2ccc(Cl)cc2)CC1(C)N=O (stereo not given) .
A) inactive

Q) Tell me the recorded outcome of this test for CN1CCCc2cc(/C=C3/SC(=S)N(CCc4ccc(O)cc4)C3=O)ccc21 .
A) inactive

Q) Tell me the recorded outcome of this test for COc1cc(Nc2ncccc2NC(=O)c2cn(Cc3cccc(Oc4ccccc4)c3)nn2)cc(OC)c1 .
A) inactive

Q) Tell me the recorded outcome of this test for CC1(C)CC[C@]2(C(=O)N3CCOCC3)CC[C@]3(C)C(=CC[C@@H]4[C@@]5(C)C/C(=C/c6ccncc6)C(=O)C(C)(C)[C@@H]5CC[C@]43C)[C@@H]2C1 .
A) inactive

Q) Tell me the recorded outcome of this test for C[Se]C(=O)CC1=C2C=C(F)C=CC2/C(=C\c2ccc(S(C)=O)cc2)C1C (stereo not given) .
A) active

Q) Tell me the recorded outcome of this test for CCCCNC1=C(OCC)C(=O)c2ccccc2C1=O .
A) inactive

Q) Tell me the recorded outcome of this test for CCOC(=O)c1c(C)nc2c(c1N)CC(=O)N2Cc1cc(OC)c(OC)c(OC)c1 .
A) inactive

Q) Tell me the recorded outcome of this test for CN(C)c1ccc(/C=C2/C=C(c3ccccc3)OC2=O)cc1 .
A) inactive

Q) Tell me the recorded outcome of this test for O=C(CBr)CN1C(=O)c2ccccc2C1=O .
A) inactive

Q) Tell me the recorded outcome of this test for COc1ccc(-c2cc(-c3ccc(OC)cc3)nc(NCCCNc3ccnc4cc(Cl)ccc34)n2)cc1 .
A) inactive

Q) Tell me the recorded outcome of this test for O=C1NC(=O)c2c1c1c3ccccc3[nH]c1c1oc3cc(Br)ccc3c21 .
A) inactive

Q) Tell me the recorded outcome of this test for COc1ccc(Nc2ncccc2NC(=O)c2cn(Cc3cccc(Oc4ccccc4)c3)nn2)cc1OC .
A) inactive

Q) Tell me the recorded outcome of this test for CCN(CC)CCNC(=O)c1ccc(-c2nc3ccc4[nH]ncc4c3c3c2CCCC3)cc1 .
A) inactive

Q) Tell me the recorded outcome of this test for CCCCCCCCCCCCCCCCOC(=O)c1c(C)[nH]c(/C=C2\N=C(c3ccc[nH]3)C=C2OC)c1C .
A) inactive

Q) Tell me the recorded outcome of this test for COc1ccc(C2=Nc3c/c(=C\c4c(O)[nH]c5cc(Cl)ccc45)ccc3=N2)cc1 .
A) inactive

Q) Tell me the recorded outcome of this test for CCOC(=O)C(=Cc1cccc(C#N)c1)C(=O)OCC .
A) inactive

Q) Tell me the recorded outcome of this test for Cc1c2cnccc2c(C)c2c1c1cc(C3OCCCO3)ccc1n2C .
A) active

Q) Tell me the recorded outcome of this test for CS(=O)(=O)Cc1cnc(C2OCCO2)s1 .
A) inactive

Q) Tell me the recorded outcome of this test for CCn1cc(CNc2ccc(C(=O)Nc3cc4cc(OC)c(OC)cc4c(C)n3)cc2)c(C)n1 .
A) inactive

Q) Tell me the recorded outcome of this test for CN1CCN(CCOc2ccc(-c3cnc4c(-c5ccc(C(F)(F)F)cc5)cnn4c3)cc2)CC1 .
A) inactive

Q) Tell me the recorded outcome of this test for O=[N+]([O-])/C(=C\c1ccco1)c1ccccc1Cl .
A) inactive

Q) Tell me the recorded outcome of this test for COc1ccc2[nH]cc(-c3nc(-c4cn(C)c5ccncc45)cs3)c2c1 .
A) active

Q) Tell me the recorded outcome of this test for Brc1ccc(-c2cnc3nonc3n2)cc1 .
A) inactive

Q) Tell me the recorded outcome of this test for CC(C)CCSc1nc(Nc2ccccc2)c(C#N)c(-c2ccccc2)n1 .
A) active

Q) Tell me the recorded outcome of this test for CCCCCCCC/C=C\CCCCCCCCOc1ccc(CC(=O)NCC[N+](C)(C)C)cc1 .
A) inactive
